Biological target: human MC4R receptor (human, UniProt P32245 1-332)
Sequence (P32245 whole entry): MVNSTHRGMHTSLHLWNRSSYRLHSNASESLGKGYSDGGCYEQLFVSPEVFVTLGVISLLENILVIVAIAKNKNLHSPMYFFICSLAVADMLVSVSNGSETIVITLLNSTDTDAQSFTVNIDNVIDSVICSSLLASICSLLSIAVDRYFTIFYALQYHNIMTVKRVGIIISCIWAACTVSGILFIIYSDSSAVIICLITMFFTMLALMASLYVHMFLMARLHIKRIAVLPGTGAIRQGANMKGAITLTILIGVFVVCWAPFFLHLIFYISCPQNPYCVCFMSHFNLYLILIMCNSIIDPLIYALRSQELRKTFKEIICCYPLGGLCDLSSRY
Experiment: cell-based or functional assay
Positions of bridges follow the written chain, without caps; N, C: chain ends. Non-standard residues stand in square brackets, D forms with d. dDip = N[C@@H](C(=O)O)C(c1ccccc1)c1ccccc1; dPhe(4-Br) = N[C@H](Cc1ccc(Br)cc1)C(=O)O; dPhe(4-I) = N[C@H](Cc1ccc(I)cc1)C(=O)O; d2Nal = N[C@H](Cc1ccc2ccccc2c1)C(=O)O; dTic = O=C(O)[C@H]1Cc2ccccc2CN1; Nle = CCCC[C@H](N)C(=O)O

{"columns": ["binder", "MC4R selectivity vs MC3R"],
 "data": [
  ["Ac-RC[dA]R[dPhe(4-Br)]R[dTic]C-NH2 (disulfide 2-8) [CTX-1256]", 0.08],
  ["Ac-RC[dA]R[dPhe(4-Br)]R[d2Nal]C-NH2 (disulfide 2-8; SMILES CC(=O)N[C@@H](CCCNC(=N)N)C(=O)N[C@H]1CSSC[C@@H](C(N)=O)NC(=O)[C@@H](Cc2ccc3ccccc3c2)NC(=O)[C@H](CCCNC(=N)N)NC(=O)[C@@H](Cc2ccc(Br)cc2)NC(=O)[C@H](CCCNC(=N)N)NC(=O)[C@@H](C)NC1=O) [CTX-1254]", 2.19],
  ["Ac-RC[dA]R[dDip]R[dW]C-NH2 (disulfide 2-8) [CTX-1280]", 1.24],
  ["Ac-RC[dA]R[dPhe(4-Br)]R[dW]CRF-NH2 (disulfide 2-8; SMILES CC(=O)N[C@@H](CCCNC(=N)N)C(=O)N[C@H]1CSSC[C@@H](C(=O)N[C@@H](CCCNC(=N)N)C(=O)N[C@@H](Cc2ccccc2)C(N)=O)NC(=O)[C@@H](Cc2c[nH]c3ccccc23)NC(=O)[C@H](CCCNC(=N)N)NC(=O)[C@@H](Cc2ccc(Br)cc2)NC(=O)[C@H](CCCNC(=N)N)NC(=O)[C@@H](C)NC1=O) [CTX-1220]", 3.82],
  ["Ac-R[Nle]CH[dPhe(4-I)]R[dW]C-NH2 (disulfide 3-8; SMILES CCCC[C@H](NC(=O)[C@H](CCCNC(=N)N)NC(C)=O)C(=O)N[C@H]1CSSC[C@@H](C(N)=O)NC(=O)[C@@H](Cc2c[nH]c3ccccc23)NC(=O)[C@H](CCCNC(=N)N)NC(=O)[C@@H](Cc2ccc(I)cc2)NC(=O)[C@H](Cc2c[nH]cn2)NC1=O) [CTX-1233]", 1.88],
  ["Ac-R[Nle]CH[dPhe(4-Br)]R[dW]C-NH2 (disulfide 3-8; SMILES CCCC[C@H](NC(=O)[C@H](CCCNC(=N)N)NC(C)=O)C(=O)N[C@H]1CSSC[C@@H](C(N)=O)NC(=O)[C@@H](Cc2c[nH]c3ccccc23)NC(=O)[C@H](CCCNC(=N)N)NC(=O)[C@@H](Cc2ccc(Br)cc2)NC(=O)[C@H](Cc2c[nH]cn2)NC1=O) [CTX-1231]", 3.04]
]}
